Origin of values: paper PMC4859410

Target Of Assay: OATP1B1 (Homo sapiens, UniProt Q9Y6L6)
Sequence (Q9Y6L6 1-691): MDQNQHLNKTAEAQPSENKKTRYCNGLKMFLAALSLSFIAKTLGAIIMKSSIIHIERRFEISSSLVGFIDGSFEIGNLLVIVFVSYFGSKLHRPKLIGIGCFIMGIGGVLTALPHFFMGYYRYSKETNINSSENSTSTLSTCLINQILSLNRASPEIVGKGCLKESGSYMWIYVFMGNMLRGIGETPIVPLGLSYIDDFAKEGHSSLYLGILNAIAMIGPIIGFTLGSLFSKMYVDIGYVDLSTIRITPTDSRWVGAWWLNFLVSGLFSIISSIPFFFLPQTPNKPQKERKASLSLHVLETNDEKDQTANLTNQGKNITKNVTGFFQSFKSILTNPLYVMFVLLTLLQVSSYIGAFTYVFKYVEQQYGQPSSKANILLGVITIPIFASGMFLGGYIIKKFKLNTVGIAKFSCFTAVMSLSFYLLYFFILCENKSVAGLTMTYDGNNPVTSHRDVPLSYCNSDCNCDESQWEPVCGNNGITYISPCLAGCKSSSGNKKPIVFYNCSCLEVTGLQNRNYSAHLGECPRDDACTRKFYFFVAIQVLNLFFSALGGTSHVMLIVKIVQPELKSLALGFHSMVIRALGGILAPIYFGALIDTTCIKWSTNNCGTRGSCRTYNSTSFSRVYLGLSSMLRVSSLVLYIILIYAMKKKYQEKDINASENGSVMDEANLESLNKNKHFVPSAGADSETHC
Assay: Drug uptake in X. laevis oocytes injected with SLCO1B1
Type: in vitro ADME
Run Conditions: water injected control oocytes (Table 2); with 2% human serum albumin; 1 µM (darunavir 3 µM), 18°C, 1hr; mean ± SD
Measurement Name: Drug uptake, Water (pmol/oocyte)

> print(dat)
                                   compound  experimental.value
1  CC(C)CN(C[C@@H](O)[C@H](Cc1ccccc1)NC(=O)O[C@H]1CO[C@H]2OCC[C@H]21)S(=O)(=O)c1ccc(N)cc1                0.72
2           Cc1ccnc2c1NC(=O)c1cccnc1N2C1CC1                1.80
3  O=C1Nc2ccc(Cl)cc2[C@@](C#CC2CC2)(C(F)(F)F)O1                1.46
4  Cc1cccc(C)c1OCC(=O)N[C@@H](Cc1ccccc1)[C@@H](O)C[C@H](Cc1ccccc1)NC(=O)[C@H](C(C)C)N1CCCNC1=O                0.66
5  CC(C)(C)NC(=O)[C@@H]1C[C@@H]2CCCC[C@@H]2CN1C[C@@H](O)[C@H](Cc1ccccc1)NC(=O)[C@H](CC(N)=O)NC(=O)c1ccc2ccccc2n1                0.21
6  C[C@]12CC[C@@H]3c4ccc(OS(=O)(=O)O)cc4CC[C@H]3[C@@H]1CCC2=O [estrone-3-sulphate]                0.08

* * *

Target Of Assay: UniProt Q9Y6L6
Sequence (Q9Y6L6 1-691): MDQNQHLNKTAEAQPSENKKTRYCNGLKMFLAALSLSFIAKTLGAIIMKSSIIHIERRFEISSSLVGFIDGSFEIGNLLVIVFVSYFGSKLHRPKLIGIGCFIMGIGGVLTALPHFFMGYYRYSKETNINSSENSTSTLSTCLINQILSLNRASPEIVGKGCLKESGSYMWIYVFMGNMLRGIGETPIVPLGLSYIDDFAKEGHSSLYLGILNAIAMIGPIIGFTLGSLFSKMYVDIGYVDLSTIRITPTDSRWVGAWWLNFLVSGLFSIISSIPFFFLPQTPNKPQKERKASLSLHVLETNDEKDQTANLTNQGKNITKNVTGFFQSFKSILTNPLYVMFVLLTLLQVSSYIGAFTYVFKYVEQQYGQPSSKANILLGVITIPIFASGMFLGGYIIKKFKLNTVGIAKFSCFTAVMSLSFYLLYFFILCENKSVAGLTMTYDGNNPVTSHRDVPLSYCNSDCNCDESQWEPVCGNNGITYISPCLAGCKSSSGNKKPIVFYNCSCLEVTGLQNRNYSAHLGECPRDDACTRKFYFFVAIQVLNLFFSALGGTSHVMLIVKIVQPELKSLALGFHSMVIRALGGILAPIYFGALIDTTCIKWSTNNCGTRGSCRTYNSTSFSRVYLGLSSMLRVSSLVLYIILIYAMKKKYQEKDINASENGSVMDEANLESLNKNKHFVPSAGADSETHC
Assay: Drug uptake in X. laevis oocytes injected with SLCO1B1
Type: in vitro ADME
Run Conditions: OATP1B1 cRNA injected oocytes; with 2% human serum albumin; 1 µM (darunavir 3 µM), 18°C, 1hr; mean ± SD
The following compounds are listed with their measured Drug uptake, OATP1B1 values.
Measurement Name: Drug uptake, OATP1B1

Compound	Measurement Name	Experimental Value
CC(C)(C)NC(=O)[C@@H]1C[C@@H]2CCCC[C@@H]2CN1C[C@@H](O)[C@H](Cc1ccccc1)NC(=O)[C@H](CC(N)=O)NC(=O)c1ccc2ccccc2n1 [Saquinavir, saquinavir]	Drug uptake, OATP1B1	0.64 ± 0.23 pmol/oocyte
O=C1Nc2ccc(Cl)cc2[C@@](C#CC2CC2)(C(F)(F)F)O1 [Efavirenz, efavirenz]	Drug uptake, OATP1B1	1.51 ± 0.12 pmol/oocyte
Cc1cccc(C)c1OCC(=O)N[C@@H](Cc1ccccc1)[C@@H](O)C[C@H](Cc1ccccc1)NC(=O)[C@H](C(C)C)N1CCCNC1=O [Lopinavir, lopinavir]	Drug uptake, OATP1B1	1.14 ± 0.41 pmol/oocyte
C[C@]12CC[C@@H]3c4ccc(OS(=O)(=O)O)cc4CC[C@H]3[C@@H]1CCC2=O [estrone-3-sulphate]	Drug uptake, OATP1B1	0.15 ± 0.03 pmol/oocyte
Cc1ccnc2c1NC(=O)c1cccnc1N2C1CC1 [Nevirapine, nevirapine]	Drug uptake, OATP1B1	2.01 ± 0.40 pmol/oocyte
CC(C)CN(C[C@@H](O)[C@H](Cc1ccccc1)NC(=O)O[C@H]1CO[C@H]2OCC[C@H]21)S(=O)(=O)c1ccc(N)cc1 [Darunavir, darunavir]	Drug uptake, OATP1B1	2.14 ± 0.82 pmol/oocyte

* * *

Examples of compounds with documented Drug uptake, Water follow.
Target Of Assay: OATP1B3 (Homo sapiens, UniProt Q9NPD5)
Sequence (Q9NPD5 whole entry): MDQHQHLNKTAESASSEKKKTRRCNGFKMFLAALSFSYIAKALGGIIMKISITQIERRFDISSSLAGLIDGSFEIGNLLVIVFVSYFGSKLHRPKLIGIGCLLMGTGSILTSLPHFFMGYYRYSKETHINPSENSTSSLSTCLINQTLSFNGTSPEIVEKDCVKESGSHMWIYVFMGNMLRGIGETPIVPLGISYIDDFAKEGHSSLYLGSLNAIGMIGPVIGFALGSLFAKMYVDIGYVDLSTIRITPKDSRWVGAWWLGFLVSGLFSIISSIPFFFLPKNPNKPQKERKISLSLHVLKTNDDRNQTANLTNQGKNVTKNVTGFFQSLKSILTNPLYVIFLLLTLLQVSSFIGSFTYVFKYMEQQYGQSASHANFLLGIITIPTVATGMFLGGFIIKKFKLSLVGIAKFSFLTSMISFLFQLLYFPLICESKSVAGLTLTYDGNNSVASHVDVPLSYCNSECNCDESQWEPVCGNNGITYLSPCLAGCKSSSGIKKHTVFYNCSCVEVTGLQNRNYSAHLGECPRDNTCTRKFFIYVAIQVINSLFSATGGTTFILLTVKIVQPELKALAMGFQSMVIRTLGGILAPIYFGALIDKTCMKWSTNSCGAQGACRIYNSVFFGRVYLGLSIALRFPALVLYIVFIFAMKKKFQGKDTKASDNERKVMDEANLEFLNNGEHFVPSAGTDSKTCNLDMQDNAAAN
Assay: Drug uptake in X. laevis oocytes injected with SLCO1B3
Assay type: in vitro ADME
Run Conditions: water injected control oocytes (Table 3); without human serum albumin; 1 µM (darunavir 3 µM, performed once), 18°C, 1hr; mean ± SD
Measurement Name: Drug uptake, Water (pmol/oocyte)

> print(dat)
                                   compound    measurement.name  experimental.value
1  CC(C)(C)NC(=O)[C@@H]1C[C@@H]2CCCC[C@@H]2CN1C[C@@H](O)[C@H](Cc1ccccc1)NC(=O)[C@H](CC(N)=O)NC(=O)c1ccc2ccccc2n1  Drug uptake, Water                1.62
2           Cc1ccnc2c1NC(=O)c1cccnc1N2C1CC1  Drug uptake, Water                2.98
3  C[C@]12CC[C@@H]3c4ccc(OS(=O)(=O)O)cc4CC[C@H]3[C@@H]1CCC2=O [estrone-3-sulphate]  Drug uptake, Water                0.21
4  O=C1Nc2ccc(Cl)cc2[C@@](C#CC2CC2)(C(F)(F)F)O1  Drug uptake, Water               16.56
5  CC(C)CN(C[C@@H](O)[C@H](Cc1ccccc1)NC(=O)O[C@H]1CO[C@H]2OCC[C@H]21)S(=O)(=O)c1ccc(N)cc1  Drug uptake, Water                3.29
6  Cc1cccc(C)c1OCC(=O)N[C@@H](Cc1ccccc1)[C@@H](O)C[C@H](Cc1ccccc1)NC(=O)[C@H](C(C)C)N1CCCNC1=O  Drug uptake, Water                1.69

* * *

Target Of Assay: OATP1A2 (Homo sapiens, UniProt P46721)
Sequence (P46721 1-670): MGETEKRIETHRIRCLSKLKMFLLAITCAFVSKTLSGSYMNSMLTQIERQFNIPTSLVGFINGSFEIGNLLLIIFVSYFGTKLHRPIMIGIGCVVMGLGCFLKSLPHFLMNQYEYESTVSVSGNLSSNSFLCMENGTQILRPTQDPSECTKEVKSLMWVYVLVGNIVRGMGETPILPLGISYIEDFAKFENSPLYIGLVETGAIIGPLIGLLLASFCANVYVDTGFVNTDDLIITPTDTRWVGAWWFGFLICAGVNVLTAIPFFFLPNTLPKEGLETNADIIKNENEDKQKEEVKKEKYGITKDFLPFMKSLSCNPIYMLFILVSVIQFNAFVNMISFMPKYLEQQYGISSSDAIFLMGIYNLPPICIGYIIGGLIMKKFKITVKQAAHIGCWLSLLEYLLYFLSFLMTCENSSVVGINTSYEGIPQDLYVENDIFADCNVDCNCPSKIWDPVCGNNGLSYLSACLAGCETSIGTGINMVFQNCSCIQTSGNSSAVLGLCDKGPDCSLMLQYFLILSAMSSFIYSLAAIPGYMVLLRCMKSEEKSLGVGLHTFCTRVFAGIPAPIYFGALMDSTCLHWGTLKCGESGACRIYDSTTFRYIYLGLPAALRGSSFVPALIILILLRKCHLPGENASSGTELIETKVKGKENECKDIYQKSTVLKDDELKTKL
Assay: Drug uptake in X. laevis oocytes injected with SLCO1A2
Assay type: in vitro ADME
Run Conditions: water injected control oocytes (Table 1); with 2% human serum albumin; 1 µM (darunavir 3 µM), 18°C, 1hr; mean ± SD

Compound	Target Of Assay	Drug uptake, Water
O=C1Nc2ccc(Cl)cc2[C@@](C#CC2CC2)(C(F)(F)F)O1 [Efavirenz, efavirenz]	OATP1A2 (Homo sapiens, UniProt P46721)	1.47 ± 0.28 pmol/oocyte
C[C@]12CC[C@@H]3c4ccc(OS(=O)(=O)O)cc4CC[C@H]3[C@@H]1CCC2=O [estrone-3-sulphate]	OATP1A2 (Homo sapiens, UniProt P46721)	0.10 ± 0.03 pmol/oocyte
Cc1cccc(C)c1OCC(=O)N[C@@H](Cc1ccccc1)[C@@H](O)C[C@H](Cc1ccccc1)NC(=O)[C@H](C(C)C)N1CCCNC1=O [Lopinavir, lopinavir]	OATP1A2 (Homo sapiens, UniProt P46721)	0.82 ± 0.24 pmol/oocyte
CC(C)(C)NC(=O)[C@@H]1C[C@@H]2CCCC[C@@H]2CN1C[C@@H](O)[C@H](Cc1ccccc1)NC(=O)[C@H](CC(N)=O)NC(=O)c1ccc2ccccc2n1 [Saquinavir, saquinavir]	OATP1A2 (Homo sapiens, UniProt P46721)	0.27 ± 0.03 pmol/oocyte
Cc1ccnc2c1NC(=O)c1cccnc1N2C1CC1 [Nevirapine, nevirapine]	OATP1A2 (Homo sapiens, UniProt P46721)	2.23 ± 0.93 pmol/oocyte
CC(C)CN(C[C@@H](O)[C@H](Cc1ccccc1)NC(=O)O[C@H]1CO[C@H]2OCC[C@H]21)S(=O)(=O)c1ccc(N)cc1 [Darunavir, darunavir]	OATP1A2 (Homo sapiens, UniProt P46721)	0.96 ± 0.37 pmol/oocyte
